Target: T1, human chemokine (C-C motif) receptor 8 (CCR8) (human, UniProt P51685 1-355)
T1 construct: On human peripheral blood lymphocytes / PBMC (native) or on human CCR8 GFP-transfected Ba/F3 cells; also called hCCR8; human CCR8
T1 sequence (P51685 whole entry): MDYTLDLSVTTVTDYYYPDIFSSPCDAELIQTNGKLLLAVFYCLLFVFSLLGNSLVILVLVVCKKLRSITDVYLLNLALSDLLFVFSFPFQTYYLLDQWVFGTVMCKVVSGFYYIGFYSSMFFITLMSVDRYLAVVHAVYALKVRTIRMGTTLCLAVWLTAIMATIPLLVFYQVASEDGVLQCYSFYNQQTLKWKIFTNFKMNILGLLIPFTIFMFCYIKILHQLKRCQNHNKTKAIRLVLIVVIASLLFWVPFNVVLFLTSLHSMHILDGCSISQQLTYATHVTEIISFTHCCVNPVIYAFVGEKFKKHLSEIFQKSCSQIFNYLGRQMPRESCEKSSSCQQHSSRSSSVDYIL
Experiment: flow cytometry blocking, PBMC CCR8+ CD4+ cells; competitor PE-AB14 (its MFI is read)
Entries are grouped by MFI into these classes: LOW = under 800, MID = from 800 up to 900, HIGH = 900 and over

Category of AB2 (antibody, V domains shown, Hybridoma monoclonal; also called antibody 2; clone 2) VH: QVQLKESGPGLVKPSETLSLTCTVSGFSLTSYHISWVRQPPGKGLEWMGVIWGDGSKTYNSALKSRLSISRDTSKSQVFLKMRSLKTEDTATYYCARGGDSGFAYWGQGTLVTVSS VL: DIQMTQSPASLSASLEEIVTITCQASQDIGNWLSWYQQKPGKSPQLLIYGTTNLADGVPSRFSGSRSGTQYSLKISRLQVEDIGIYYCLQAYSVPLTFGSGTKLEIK : MID
